Source of measurements: patent US20220340678A1

Parameter: koff. Scope: all listed entries.
ASSAY SYSTEM: T1, histidine-tagged human uPAR (Sino#10925-H08H) (human, UniProt Q03405 23-303)
T1 construct: also called uPAR-His
TEST: BLI (Octet), antibody on anti-mouse Fc sensor, uPAR in solution
// note: answer is a bare numeric in s⁻¹

BINDER	VALUE UNITS	koff
M43 (antibody, V domains shown, Mouse hybridoma antibody; also called anti-uPAR antibody M43; parental M43) VH: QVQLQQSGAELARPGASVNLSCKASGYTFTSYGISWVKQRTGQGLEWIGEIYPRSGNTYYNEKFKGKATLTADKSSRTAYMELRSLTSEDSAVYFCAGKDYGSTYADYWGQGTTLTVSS VL: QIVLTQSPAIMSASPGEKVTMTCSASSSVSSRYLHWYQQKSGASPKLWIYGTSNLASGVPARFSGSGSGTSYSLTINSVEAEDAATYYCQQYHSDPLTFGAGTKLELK	s⁻¹	0.00883

So what's the measured koff for this one? M5 (antibody, V domains shown, Mouse hybridoma antibody; also called anti-uPAR antibody M5; parental M5) VH: QVQLKESGPGLVAPSQSLSITCTVSGFSLTNYGVHWVRQPPGKDLEWLVVIWSDGGTTYNSALKSRLSISKDNSKSQVFLKMNSLQTDDTAMYYCARGGRSDLFAYWGQGTLVTVSA VL: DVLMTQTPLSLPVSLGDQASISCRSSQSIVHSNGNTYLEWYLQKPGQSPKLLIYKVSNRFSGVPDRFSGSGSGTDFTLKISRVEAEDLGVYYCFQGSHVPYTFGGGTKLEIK 0.000962

So what's the measured koff for this one? M8 (antibody, V domains shown, Mouse hybridoma antibody; also called anti-uPAR antibody M8; parental M8) VH: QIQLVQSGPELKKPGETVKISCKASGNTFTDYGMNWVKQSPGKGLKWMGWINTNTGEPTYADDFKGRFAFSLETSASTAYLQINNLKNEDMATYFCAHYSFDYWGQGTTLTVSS VL: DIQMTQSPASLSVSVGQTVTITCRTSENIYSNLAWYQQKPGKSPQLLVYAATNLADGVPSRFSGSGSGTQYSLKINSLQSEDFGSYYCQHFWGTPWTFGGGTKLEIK 0.00063
